Catalogue of melting point readings, one per entry.

Answered cases to consult:
- compound: "COc1cc(C)c(S(C)=O)cc1O (stereo not given)"
  melting point: "148 to 150 °C"
- compound: "CC(CSc1cc(C(C)(C)C)c(O)c(C(C)(C)C)c1)N(O)C(N)=O (stereo not given)"
  melting point: "65 to 66 °C"
- compound: "CC(=O)OCc1cc(C)cc(Oc2nc(Cl)nc(Cl)c2C(C)C)c1"
  melting point: "76 to 77 °C"
- compound: "FC(F)(F)c1cc(Br)cc(OCc2ccc3ccccc3c2)c1"
  melting point: "68 to 70 °C"
- compound: "CCOC(=O)c1cn(CCc2ccccc2)c2occc2c1=O"
  melting point: "139 to 140 °C"
- compound: "CSc1ccc(C(CC2CCCC2)C(=O)Nc2ccc([N+](=O)[O-])cn2)cc1C(F)(F)F (stereo not given)"
  melting point: "109 to 110 °C"
- compound: "CCCC(N(NC(=O)OC(C)(C)C)C(=O)c1cc(C)cc(C)c1)C(C)(C)C (stereo not given)"
  melting point: "116 to 118 °C"
- compound: "Cc1c(C2CCCCC2)nn(C)c1C1CCCCC1"
  melting point: "120 to 122 °C"

Any idea what melting point was measured for `N#Cc1ccc(CBr)c2ccccc12` ?
131 to 133 °C

Any idea what melting point was measured for CC1Sc2c(C(=O)O)c(=O)c3cc(F)c(N4CCC(N)C4)cc3n21 (stereo not given) ?
238 to 240 °C
